# Test system: KG-1 cell line (FGFR 1-fusion)
# PROCEDURE TEXT: Cancer cell line cell viability assay (Cell Titer-Glo), 72 hr
# Assay type: cell-based
# TEST PARAMETERS: Homo sapiens, KG-1, KG-1 cell line (FGFR1-fusion)
pIC50: −log10 of the molar value.
RECORDED METRIC: pIC50

Below: 4 molecules and their reported pIC50.
[
  {
    "MOLECULE": "C[C@@H](Oc1ccc2[nH]nc(-c3cnc(N4CC(C)(N5CCC5)C4)c(F)c3)c2c1)c1c(Cl)cncc1Cl [Example 103]",
    "pIC50": "7.30 to 10.00"
  },
  {
    "MOLECULE": "C[C@@H](Oc1ccc2[nH]nc(-c3cnc(N4CC(C)(OCCN5CCCC5)C4)c(F)c3)c2c1)c1c(Cl)cncc1Cl [Example 261]",
    "pIC50": "6.70 to 7.30"
  },
  {
    "MOLECULE": "C[C@@H](Oc1ccc2[nH]nc(-c3cnc(N4CC(C)(N5CCS(=O)(=O)CC5)C4)c(F)c3)c2c1)c1c(Cl)cncc1Cl [Example 167]",
    "pIC50": "6.70 to 7.30"
  },
  {
    "MOLECULE": "C[C@@H](Oc1ccc2[nH]nc(-c3cnc(N4CC(C)(NCCO)C4)c(C#N)c3)c2c1)c1c(Cl)cncc1Cl [Example 52]",
    "pIC50": "6.00 to 6.70"
  }
]

Now, please, on to the next molecule.
Quick one: pIC50 of CC(C)NC1(C)CN(c2ncc(-c3n[nH]c4ccc(O[C@H](C)c5c(Cl)cncc5Cl)cc34)cc2C#N)C1 [Example 48] ?
6.00 to 6.70

====

# EXPERIMENTAL SYSTEM: FGFR1 (Homo sapiens)
# Construct: made in house; host or cells: E. coli (BL21-derived), T7 phage
# Sequence (P11362 22-822): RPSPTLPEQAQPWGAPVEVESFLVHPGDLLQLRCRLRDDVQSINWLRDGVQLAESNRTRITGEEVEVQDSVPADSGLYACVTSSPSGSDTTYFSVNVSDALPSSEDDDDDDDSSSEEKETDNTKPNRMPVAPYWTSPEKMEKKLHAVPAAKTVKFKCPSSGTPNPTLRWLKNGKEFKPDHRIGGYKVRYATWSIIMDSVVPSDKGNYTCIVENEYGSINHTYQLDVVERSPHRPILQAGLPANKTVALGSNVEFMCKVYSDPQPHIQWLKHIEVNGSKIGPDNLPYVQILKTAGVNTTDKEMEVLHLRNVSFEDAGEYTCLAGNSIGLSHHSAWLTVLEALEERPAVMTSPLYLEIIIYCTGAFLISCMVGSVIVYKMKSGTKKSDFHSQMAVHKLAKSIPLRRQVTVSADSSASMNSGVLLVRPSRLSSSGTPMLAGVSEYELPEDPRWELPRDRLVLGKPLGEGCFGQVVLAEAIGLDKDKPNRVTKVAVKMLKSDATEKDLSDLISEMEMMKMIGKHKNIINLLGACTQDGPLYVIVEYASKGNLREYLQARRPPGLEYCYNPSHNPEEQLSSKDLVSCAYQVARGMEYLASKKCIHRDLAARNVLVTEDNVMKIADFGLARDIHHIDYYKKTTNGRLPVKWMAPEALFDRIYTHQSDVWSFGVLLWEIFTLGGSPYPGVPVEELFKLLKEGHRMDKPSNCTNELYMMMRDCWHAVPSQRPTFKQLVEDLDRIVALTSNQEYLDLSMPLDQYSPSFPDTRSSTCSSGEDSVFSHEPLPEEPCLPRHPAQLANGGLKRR
# PROCEDURE TEXT: Kinase binding assay (kinase-tagged T7 phage, affinity beads, qPCR), Kd
# TEST PARAMETERS: read-out: FGFR1 (Kd nM)
// reported Kd for each item listed

Answered cases to consult:
[
  {
    "SMILES": "C[C@H]1CN(C2(C)CN(c3ccc(-c4n[nH]c5ccc(O[C@H](C)c6c(Cl)cncc6Cl)cc45)cn3)C2)CCO1",
    "Kd": "1 to 50 nM"
  },
  {
    "SMILES": "C[C@@H](Oc1ccc2[nH]nc(-c3ccc(N4CC(N)(CC(C)(C)O)C4)nc3)c2c1)c1c(Cl)cncc1Cl",
    "Kd": "1 to 50 nM"
  }
]

Which Kd is listed for C[C@@H](Oc1ccc2[nH]nc(-c3cnc(N4CC(C)(N5CCC5)C4)c(C#N)c3)c2c1)c1c(Cl)cncc1Cl ?
1 to 50 nM

Requested field: Kd. Item: C[C@@H](Oc1cc2c(-c3cnc(N4CC(C)(CN5CCOCC5)C4)c(C#N)c3)n[nH]c2cc1F)c1c(Cl)cncc1Cl
50 to 300 nM

Fill blank: measured Kd of the compound Cc1ncc(Cl)c([C@@H](C)Oc2ccc3[nH]nc(-c4cnc(N5CC(C)(N)C5)c(C#N)c4)c3c2)c1Cl is ____.
50 to 300 nM

====

# EXPERIMENTAL SYSTEM: FGFR4 (Homo sapiens)
# Construct: made in house; host or cells: E. coli (BL21-derived), T7 phage
# Sequence (P22455 22-802): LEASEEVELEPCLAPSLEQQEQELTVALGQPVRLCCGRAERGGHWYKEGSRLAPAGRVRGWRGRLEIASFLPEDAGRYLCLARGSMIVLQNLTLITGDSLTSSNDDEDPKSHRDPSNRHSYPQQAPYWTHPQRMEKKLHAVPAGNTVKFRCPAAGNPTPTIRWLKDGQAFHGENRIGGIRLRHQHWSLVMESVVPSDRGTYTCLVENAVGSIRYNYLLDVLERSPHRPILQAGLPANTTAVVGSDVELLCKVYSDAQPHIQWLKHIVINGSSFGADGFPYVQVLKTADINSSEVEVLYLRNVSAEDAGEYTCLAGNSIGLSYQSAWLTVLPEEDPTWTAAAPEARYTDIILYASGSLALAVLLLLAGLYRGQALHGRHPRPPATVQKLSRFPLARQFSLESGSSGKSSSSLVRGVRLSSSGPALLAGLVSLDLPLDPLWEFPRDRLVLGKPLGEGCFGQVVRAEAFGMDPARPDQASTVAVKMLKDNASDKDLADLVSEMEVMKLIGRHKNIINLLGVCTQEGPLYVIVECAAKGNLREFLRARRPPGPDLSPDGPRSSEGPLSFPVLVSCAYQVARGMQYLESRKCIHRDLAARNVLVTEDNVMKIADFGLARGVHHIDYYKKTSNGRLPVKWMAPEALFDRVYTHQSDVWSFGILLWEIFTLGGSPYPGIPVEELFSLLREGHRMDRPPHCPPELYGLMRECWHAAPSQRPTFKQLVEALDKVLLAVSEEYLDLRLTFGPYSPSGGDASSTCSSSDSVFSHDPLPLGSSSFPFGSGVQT
# PROCEDURE TEXT: Kinase binding assay (kinase-tagged T7 phage, affinity beads, qPCR), Kd
# TEST PARAMETERS: read-out: FGFR4 (Kd nM)
RECORDED METRIC: Kd

Known Kd results, listed for orientation:
[
  {
    "SMILES": "C[C@@H](Oc1ccc2[nH]nc(-c3cnc(N4CC(C)(NCC5(O)CC5)C4)c(C#N)c3)c2c1)c1c(Cl)cncc1Cl",
    "Kd": "1 to 50 nM"
  },
  {
    "SMILES": "COc1cc2[nH]nc(-c3cnc(N4CC(C)(NCC5CC5)C4)c(C#N)c3)c2cc1O[C@@H](C)c1c(Cl)cncc1Cl",
    "Kd": "1 to 50 nM"
  },
  {
    "SMILES": "COc1cc2[nH]nc(-c3cc(C#N)c(N4CC(C)(N(C)C)C4)nn3)c2cc1O[C@H](C)c1c(Cl)cncc1Cl",
    "Kd": "1 to 50 nM"
  }
]

Data request, read-out Kd, for CC(C)NC1(C)CN(c2ncc(-c3n[nH]c4ccc(O[C@H](C)c5c(Cl)cncc5Cl)cc34)cc2C#N)C1
1 to 50 nM

Given the entry CCN(CC)C1(C)CN(c2ncc(-c3n[nH]c4ccc(O[C@H](C)c5c(Cl)cncc5Cl)cc34)cc2C#N)C1 , report its measured Kd.
1 to 50 nM

Record request: Kd value, item CC(=O)N1CCN(C2(C)CN(c3ncc(-c4n[nH]c5ccc(O[C@H](C)c6c(Cl)cncc6Cl)cc45)cc3F)C2)CC1
1 to 50 nM

# Kd lookup, item CC[C@H](C)NC1(C)CN(c2ccc(-c3n[nH]c4ccc(O[C@H](C)c5c(Cl)cncc5Cl)cc34)cn2)C1
1 to 50 nM

Name the recorded Kd for CCN(CC)C1(C)CN(c2ncc(-c3n[nH]c4ccc(O[C@H](C)c5c(Cl)cnc(C)c5Cl)cc34)cc2C#N)C1 .
1 to 50 nM

Tell me the measured Kd of Cc1ncc(Cl)c([C@@H](C)Oc2ccc3[nH]nc(-c4cnc(N5CC(C)(N6CCOCC6)C5)c(C#N)c4)c3c2)c1Cl , please.
1 to 50 nM

What value of measured Kd is listed for C[C@H](O)CNC1(C)CN(c2ncc(-c3n[nH]c4ccc(O[C@H](C)c5c(Cl)cncc5Cl)c(F)c34)cc2F)C1 ?
50 to 300 nM

For the compound C[C@@H](Oc1ccc2[nH]nc(-c3cnc(N4CC(C)(CP(C)(C)=O)C4)c(C#N)c3)c2c1)c1c(Cl)cncc1Cl , what Kd is on record?
1 to 50 nM

Need Kd, item COc1cc2[nH]nc(-c3cnc(N4CC(C)(N(C)C)C4)c(S(C)(=O)=O)c3)c2cc1O[C@H](C)c1c(Cl)cncc1Cl
1 to 50 nM

# Kd lookup, item COc1cc2[nH]nc(-c3cnc(N4CC(C)(N5CC6CC(C5)O6)C4)c(C#N)c3)c2cc1O[C@H](C)c1c(Cl)cncc1Cl
1 to 50 nM

Please report the recorded Kd for CC(C)NC1(C)CN(c2ncc(-c3n[nH]c4ccc(O[C@H](C)c5c(Cl)cncc5Cl)cc34)cn2)C1 .
1 to 50 nM

Which Kd value belongs to CCNC1(C)CN(c2ncc(-c3n[nH]c4ccc(O[C@H](C)c5c(Cl)cncc5Cl)cc34)cc2C#N)C1 ?
1 to 50 nM

Recorded Kd of C[C@@H](Oc1ccc2[nH]nc(-c3cnc(N4CC(C)(CS(C)(=O)=O)C4)c(F)c3)c2c1)c1c(Cl)cncc1Cl , please.
1 to 50 nM

Consider the compound shown here: C[C@H]1CN(C2(C)CN(c3ccc(-c4n[nH]c5ccc(O[C@H](C)c6c(Cl)cncc6Cl)cc45)cn3)C2)CCO1 What is its recorded Kd?
1 to 50 nM

Reported Kd for COc1cc2[nH]nc(-c3cnc(N4CC(C)(N[C@@H]5CCOC5)C4)c(C#N)c3)c2cc1O[C@H](C)c1c(Cl)cncc1Cl : what is it?
1 to 50 nM

Which measured Kd value corresponds to COc1cc2[nH]nc(-c3cnc(N4CC(CC#N)(NCC5CC5)C4)c(C#N)c3)c2cc1O[C@H](C)c1c(Cl)cnc(C)c1Cl ?
1 to 50 nM

Fill blank: measured Kd of the compound COc1cc2[nH]nc(-c3cnc(N4CC(CC#N)(NCC5CC5)C4)c(C#N)c3)c2cc1O[C@H](C)c1c(Cl)cncc1Cl is ____.
1 to 50 nM
